Could you please report measured hERG current change (%, negative = inhibition) at 10uM for the items listed next?
molecular target: human ether-à-go-go-related gene (hERG) potassium channel (human, UniProt Q12809); experiment: primary screen, population patch clamp on CHO cells stably expressing hERG; higher = less effect of the substance;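 also: peak tail current of the secondary pulse compared with the same well before compound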
Sequence (Q12809 whole entry, looked up): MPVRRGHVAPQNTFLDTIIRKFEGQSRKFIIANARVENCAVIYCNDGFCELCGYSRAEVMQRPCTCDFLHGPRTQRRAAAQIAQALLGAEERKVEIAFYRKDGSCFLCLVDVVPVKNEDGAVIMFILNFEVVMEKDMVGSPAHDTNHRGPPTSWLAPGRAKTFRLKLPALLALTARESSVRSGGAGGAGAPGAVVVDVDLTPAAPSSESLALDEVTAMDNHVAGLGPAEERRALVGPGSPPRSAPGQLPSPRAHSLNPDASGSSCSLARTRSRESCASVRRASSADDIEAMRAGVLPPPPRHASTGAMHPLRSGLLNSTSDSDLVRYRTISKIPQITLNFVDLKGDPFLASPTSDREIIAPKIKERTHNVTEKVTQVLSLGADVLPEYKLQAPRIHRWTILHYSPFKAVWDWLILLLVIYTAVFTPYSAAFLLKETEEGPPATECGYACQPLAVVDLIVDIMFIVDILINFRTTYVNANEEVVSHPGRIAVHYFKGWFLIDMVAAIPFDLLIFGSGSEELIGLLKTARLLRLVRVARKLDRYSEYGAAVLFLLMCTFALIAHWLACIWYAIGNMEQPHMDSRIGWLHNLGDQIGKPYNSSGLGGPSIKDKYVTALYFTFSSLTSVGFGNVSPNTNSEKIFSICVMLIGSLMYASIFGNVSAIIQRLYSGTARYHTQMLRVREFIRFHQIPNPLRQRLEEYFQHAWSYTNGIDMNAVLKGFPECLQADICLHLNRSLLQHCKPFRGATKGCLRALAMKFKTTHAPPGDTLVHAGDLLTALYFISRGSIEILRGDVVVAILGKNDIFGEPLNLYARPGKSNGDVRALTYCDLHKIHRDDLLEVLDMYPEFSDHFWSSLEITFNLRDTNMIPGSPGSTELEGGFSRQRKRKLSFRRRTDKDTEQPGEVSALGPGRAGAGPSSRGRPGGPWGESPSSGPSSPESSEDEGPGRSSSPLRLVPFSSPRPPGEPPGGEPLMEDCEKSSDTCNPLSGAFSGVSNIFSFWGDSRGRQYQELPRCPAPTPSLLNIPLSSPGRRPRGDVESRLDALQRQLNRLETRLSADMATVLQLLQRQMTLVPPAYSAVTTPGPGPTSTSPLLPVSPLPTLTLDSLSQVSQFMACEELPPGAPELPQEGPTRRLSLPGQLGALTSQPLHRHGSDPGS
The whole screen tested about 310,000 compounds, of which about 14,000 (4.5%) showed an effect of 50% or more. Effects have a minus sign here. The sample as a whole holds a higher share of strong results than the screen did.
Your answer should be a plain number; it is taken to be in %.

State the recorded hERG current change (%, negative = inhibition) at 10uM for this entry: Cc1cccc(C)c1NC(=O)CN(C)C(=O)C1CCN(c2ncnc3sc(C)c(C)c23)CC1
-46.7

Okay, and C/C(CCc1ccco1)=N/NC(=O)CCC(=O)Nc1ccc(Br)cc1 ?
10.2

Query CCN(CC)S(=O)(=O)c1ccc(NC(=O)CSc2ncnc3ccccc23)cc1 next
-8.71

Entry Cc1noc(NS(=O)(=O)c2ccc(NC(=O)CSc3nc4ccccc4s3)cc2)c1C please
-2.99

Now give it for Cc1cc(C)cc(NC(=O)COC(=O)CC2CCCC2)c1 too.
-0.633
